Molecular target: pseudo-kinase domain (JH2, amino-acids 536-812 with 3 surface mutations W659A, W777A, F794H) of human V617F mutant JAK2 (Homo sapiens, UniProt O60674, F794H/V617F/W659A/W777A)
Construct: pseudo-kinase domain (JH2, amino-acids 536-812 with 3 surface mutations W659A, W777A, F794H); His (C); Avi (biotinylated) (C)
Sequence (O60674 536-812 V617F/W659A/W777A/F794H): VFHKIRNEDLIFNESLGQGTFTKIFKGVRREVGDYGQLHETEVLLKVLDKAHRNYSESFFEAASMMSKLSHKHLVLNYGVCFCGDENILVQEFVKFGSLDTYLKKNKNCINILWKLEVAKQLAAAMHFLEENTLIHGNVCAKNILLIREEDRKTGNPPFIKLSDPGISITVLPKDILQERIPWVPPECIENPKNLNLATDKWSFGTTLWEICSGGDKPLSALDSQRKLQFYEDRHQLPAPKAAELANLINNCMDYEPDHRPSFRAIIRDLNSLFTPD
Test: JAK2 LanthaScreen JH2-V617F binding assay
Settings: 50 nM tracer, 1 hour at 25° C., read-out: JH2 BIND V617F IC50
metric-name: IC50

Check out these entries, answers already filled in.
Please give the measured IC50 for this compound: COC(=O)N[C@@H]1CC[C@@H](n2c(=O)nc(N(C)C)c3cnc4[nH]c(-c5cnn(C)c5)c(-c5ccc6c(cnn6C(C)C)c5)c4c32)C1 [Example 43] 100 to 500 nM

Please give the measured IC50 for this compound: COC(=O)N[C@@H]1CC[C@@H](N2C(=O)NCc3cnc4[nH]c(-c5cnn(C)c5)c(-c5ccc6c(cnn6C)c5)c4c32)C1 [Example 29] 10 to 100 nM

Please give the measured IC50 for this compound: CC(C)n1ncc2cc(-c3c(-c4cnn(C)c4)[nH]c4ncc5c(c34)N([C@H]3C[C@H](NS(C)(=O)=O)C3)C(=O)NC5)ccc21 [Example 3] ≤ 10 nM

Please give the measured IC50 for this compound: COC(=O)N1CCC(N2C(=O)NCc3cnc4[nH]c(-c5cnn(C)c5)c(-c5ccc6c(cnn6C(C)C)c5)c4c32)CC1 [Example 14] 10 to 100 nM

Please give the measured IC50 for this compound: CC(C)COC(=O)N[C@@H]1CC[C@@H](N2C(=O)NCc3cnc4[nH]c(-c5cnn(C)c5)c(-c5ccc6c(cnn6C(C)C)c5)c4c32)C1 [Example 12] 10 to 100 nM

Please give the measured IC50 for this compound: COC(=O)N[C@@H]1CC[C@@H](n2c(=O)nc(OC)c3cnc4[nH]c(-c5cnn(C)c5)c(-c5ccc6c(cnn6C(C)C)c5)c4c32)C1 [Example 40] 100 to 500 nM

Please give the measured IC50 for this compound: COC(=O)N[C@@H]1CC[C@@H](N2C(=O)NCc3cnc4[nH]c(-c5cnn(C)c5)c(-c5ccc6c(cnn6C(C)C)c5)c4c32)C1 [Example 30] ≤ 10 nM

Please give the measured IC50 for this compound: COC(=O)N[C@H]1C[C@H](N2C(=O)NC(C)c3cnc4[nH]c(-c5cnn(C)c5)c(-c5ccc6c(cnn6C(C)C)c5)c4c32)C1 (mixture of isomers) [Example 38] 10 to 100 nM

Please give the measured IC50 for this compound: COC(=O)N[C@@H]1CC[C@@H](n2c(=O)[nH]c(=O)c3cnc4[nH]c(-c5cnn(C)c5)c(-c5ccc6c(cnn6C(C)C)c5)c4c32)C1 [Example 39] 10 to 100 nM

Please give the measured IC50 for this compound: COC(=O)N[C@@H]1CC[C@@H](n2c(=O)nc(N)c3cnc4[nH]c(-c5cnn(C)c5)c(-c5ccc6c(cnn6C(C)C)c5)c4c32)C1 [Example 41] ≤ 10 nM

New cases:
Please give the measured IC50 for this compound: CC(C)n1ncc2cc(-c3c(-c4cnn(C)c4)[nH]c4ncc5c(c34)N([C@H]3CC[C@@H]3NC(=O)NCC(F)F)C(=O)NC5)ccc21 (racemic) [Example 8] 100 to 500 nM

Please give the measured IC50 for this compound: COC(=O)N[C@H]1C[C@H](N2C(=O)NCc3cnc4[nH]c(-c5cc(C)nc(C)c5)c(-c5ccc6c(cnn6C(C)C)c5)c4c32)C1 [Example 35] 10 to 100 nM

Please give the measured IC50 for this compound: CC(=O)N[C@H]1C[C@H](N2C(=O)NCc3cnc4[nH]c(-c5cnn(C)c5)c(-c5ccc6c(cnn6C(C)C)c5)c4c32)C1 [Example 2] 10 to 100 nM
